target: Histamine H3 receptor (Cavia porcellus); assay: Histamine H3 functional assay, guinea pig ileum (ileal longitudinal muscle, myenteric plexus); set-up: species or system tissue; conditions: antagonist affinity from rightward shift of R-(α)-methylhistamine E/[A] curves (Schild); typical variance ±0.15 log units; read-out: pKb (Guinea pig ileum) (converted)
Sequence (Q9JI35 whole entry): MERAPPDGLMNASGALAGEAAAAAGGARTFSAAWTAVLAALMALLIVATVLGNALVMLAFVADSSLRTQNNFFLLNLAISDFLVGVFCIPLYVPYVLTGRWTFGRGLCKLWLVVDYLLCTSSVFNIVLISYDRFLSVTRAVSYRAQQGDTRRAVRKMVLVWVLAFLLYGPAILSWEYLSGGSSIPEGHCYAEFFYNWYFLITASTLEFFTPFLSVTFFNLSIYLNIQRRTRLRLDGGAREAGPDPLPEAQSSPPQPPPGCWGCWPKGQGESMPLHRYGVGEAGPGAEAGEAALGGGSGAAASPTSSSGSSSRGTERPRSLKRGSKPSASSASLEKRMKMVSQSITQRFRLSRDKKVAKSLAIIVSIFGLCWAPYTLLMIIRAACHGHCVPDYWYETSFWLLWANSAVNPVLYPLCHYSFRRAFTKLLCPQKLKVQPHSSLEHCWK
Counter-ions that a name gives are not always drawn.
metric: Kb
Quick note: unit goes after the number.

Exercise: Name the recorded Kb for O=S(=O)(Cc1ccc(Cl)cc1)NCCCN1CCCC1 [Example 106] .
Key: 0.631 µM

Exercise: # Kb lookup, item Cc1ccccc1CNC(=N)NCCCCCN1CCCC1 [Example 48, bis-hydrochloride]
Key: 0.0251 µM

Exercise: Can you look up the measured Kb of N=C(NCCCN1CCCC1)NCCCC12CC3CC(CC(C3)C1)C2 [Example 34, bis-hydrochloride] for me?
Key: 0.316 µM

Exercise: Quick one: Kb of N=C(N)N(CCCCCCN1CCCCC1)Cc1ccc(Cl)cc1 [Example 72, bis-hydrochloride] ?
Key: 0.00316 µM

Exercise: Sample N=C(NCCCN1CCCC1)NCc1ccc2[nH]cnc2c1 [Example 13, tris-hydrochloride] — what was its Kb?
Key: 0.501 µM

Exercise: I would be grateful if you could share the reported Kb for N=C(NCCCCCN1CCCC1)NCCC12CC3CC(CC(C3)C1)C2 [Example 37, bis-hydrochloride] .
Key: 0.0251 µM

Exercise: Give the measured Kb of O=S(=O)(NCCCCN1CCCC1)NCc1ccc(Cl)cc1 [Example 139] .
Key: 0.501 µM

Values from patent US6878736B1
